B1: tRNA (parent)
chain: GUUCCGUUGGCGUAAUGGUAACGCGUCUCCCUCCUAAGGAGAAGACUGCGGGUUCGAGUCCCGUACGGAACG

Variants of: B1
EXPERIMENTAL_PROTOCOL: yeast fitness relative to wild type (ratio to wild type); higher = fitter; tRNA-Arg(CCU), competitive growth, 37 C, YPD
Variants at the floor of the assay were thinned out.
MEASURED_PROPERTY: yeast fitness
Response field accepts a number only; no unit should be typed.

Exercise: Request the reported yeast fitness associated with GUUCCGUUGGAGUAAUGGUAACGCGUCUCCCUCCUAAGGAGAAGACUGCGGGAUCGAGUCCCGUACGGAACG [C11A U53A]
Solution: 0.59

Exercise: Can you share its yeast fitness? I mean this variant: GUUCCGUUGGCGUAAUGGUAACGCGUCUCCCGCCUAAGGAGAAGACUGCGGGUUCGAAUCCCGUACGGAACG [U32G G58A]
Solution: 0.609

Exercise: Query (variant): GUUCCGUUGGUGUAAUGGUGAACCGUCGCCCUCCUAAGGAGAGGACUGCGGGUUCGGGUCCCGUACGGAUCG [C11U A20G C22A G23C U28G A43G A57G A70U] ; field requested: yeast fitness
Solution: 0.587

Exercise: What does the record list as yeast fitness for GUUCCGUUGGCGUAGUGGUAACGCGUCUCUCUCCUAAGGAGAAGACUGCGGGUUCGAGUCCCGUACGGUACG [A15G C30U A69U] ?
Solution: 0.609

Exercise: // yeast fitness lookup, key: GAUCCGUUGGCGUAAUGGUAACGGGUCUCCCUCCUAAGGAGAAGACUGCGGGUUCGAGUCCCGUACGGAACG [U2A C24G]
Solution: 0.643

Exercise: I have this variant here, GUUCCGUUGGCGUAAUGGUAACGCGUCUCCCUCCUAAGGAGAAGACUGGGAGUUCGAGUCCCGUACGGAACG [C49G G51A] , and I need its recorded yeast fitness.
Solution: 0.637

Exercise: Param item = GUUCCGUUGGCGUAAUGGUAAGGCGUCUCCCUCCUAAGGAGAAGACUGCGGGUUCGAGUCCCGUAUGGAACG [C22G C66U] ; retrieve measured yeast fitness.
Solution: 0.896

Exercise: What measured yeast fitness goes with GUUCCGUUGGCGUAAUGGUAACGCGUCUCCCUCCUAAGGAGAAGACUGAGGCUUCGAGUCCCGUACGGAACG [C49A G52C] ?
Solution: 0.527

Exercise: Please look up its yeast fitness: GUUCCGUUAACGUAAUGGUAACGCGUCUCCCUCCUAAGGAGAAGACUGCGGGUUAGAGUCCCGUUCCGAACG [G9A G10A C55A A65U G67C]
Solution: 0.506

Exercise: Item under review: GUUCCGAUGGUGUAAUGGUAACGCGUCUCCCUCCUAAGGAGAAGACUGCGGGUUCGAGUCCCGUUCGGAACG [U7A C11U A65U] . Reported yeast fitness?
Solution: 0.682

Exercise: // query yeast fitness value for entry GUUCCGUUGGCGUUAUGGUAACGCGUCUCCCUCCUAAGGAGAGGACUGCGGGUUCGAGUCCCGUACGGAACG [A14U A43G]
Solution: 0.537

Exercise: Name the recorded yeast fitness for GUUCCGUUGGCGUAAUGGUAACGCGUCUCCCUCCUAAGGAGAUGACUGCGCGUUCGAGUCGCGUACGGAACG [A43U G51C C61G] .
Solution: 0.593

Exercise: Would you mind telling me what yeast fitness value was observed for GUUCCGUUCGCGUUAUGGUAACGCGUCUCCCUCCUAAGGAGAAGACUGCGAGUUCGAGUCCCGGACGGAACG [G9C A14U G51A U64G] ?
Solution: 0.608

Exercise: Record request: yeast fitness value, item GUUCCGUUGGCGUAAUGGUAACGCGUCUCCCACCUUAGGAGAACGCUGCGGGUUCGAGUCCCGUACGGAACG [U32A A36U G44C A45G]
Solution: 0.516

Exercise: Item GUUCCGUUGGCGUAAUGGUAACGCGUAUCCCUCCUAAGGAGAACACUGCGGGUUCGAGUCCCGUACGGAACG [C27A G44C] has what recorded yeast fitness?
Solution: 0.782

Reference source for all entries: the RNAGym collection of RNA variant scans (doi:10.1126/science.aae0568)
